Target: p-Akt1 in LNCaP cells (Homo sapiens, UniProt P31749)
Construct: SureFire assays to detect cellular p-Akt1, p-Akt2 and p-Akt3 levels in WM115 cells (Akt2/3) and LNCaP cells (Akt1); endogenous in cells; host or cells: LNCaP (ECACC 89110211)
Test: Phospho-Akt cellular SureFire assay, p-Akt1 in LNCaP cells
Format: cell-based
Conditions: read-out: Biological Assay 2 IC50 (nM) Akt1 LNCaP
Experimental: Biological Assay 2: Phospho-Akt (p-Akt) Cellular SureFire Assays The following describes SureFire assays to detect cellular p-Akt1, p-Akt2 and p-Akt3 levels in WM115 cells (Akt2/3) and LNCaP cells (Akt1). […] 2 μL dilution buffer, supplemented with a 1/20 dilution of donor beads was added to each well and incubated for a further 2 h. Plates were read with the EnVision® Multilabel Plate Reader and using the AlphaScreen settings. Compound IC50 was determined using a 4-parameter equation.
IC50 reference

[[record]]
molecule = "CCC(=O)N(C)[C@H]1CC[C@H](CC(=O)Nc2cnc(-c3ccc(C4(N)CC4)c(F)c3)c(-c3ccccc3)c2)CC1 [Example A89]"
result = "> 30000 nM"

[[record]]
molecule = "COC(=O)N(C)[C@H]1CC[C@H](CC(=O)Nc2cc(-c3ccccc3)c(-c3ccc([C@]4(N)C[C@H](F)C4)cc3)nn2)CC1 [Example A60]"
result = "> 30000 nM"


Looking up COC(=O)N(C)[C@H]1CC[C@H](CC(=O)Nc2cnc(-c3ccc(C(C)(C)N)cc3)c(-c3ccccc3)c2)CC1 [Example 34] , I see its IC50 listed as > 15000 nM

* * *

The compounds listed here are annotated with their IC50.
Molecular target: Akt1 (Homo sapiens, UniProt P31749)
Construct: unspecified tag, removed (detagged) (cleaved yes); purchased SignalChem and Proteros (Akt1); Merck Millipore (PDK1) 14-452 (PDK1); none given for Akt1
Sequence (P31749 whole entry): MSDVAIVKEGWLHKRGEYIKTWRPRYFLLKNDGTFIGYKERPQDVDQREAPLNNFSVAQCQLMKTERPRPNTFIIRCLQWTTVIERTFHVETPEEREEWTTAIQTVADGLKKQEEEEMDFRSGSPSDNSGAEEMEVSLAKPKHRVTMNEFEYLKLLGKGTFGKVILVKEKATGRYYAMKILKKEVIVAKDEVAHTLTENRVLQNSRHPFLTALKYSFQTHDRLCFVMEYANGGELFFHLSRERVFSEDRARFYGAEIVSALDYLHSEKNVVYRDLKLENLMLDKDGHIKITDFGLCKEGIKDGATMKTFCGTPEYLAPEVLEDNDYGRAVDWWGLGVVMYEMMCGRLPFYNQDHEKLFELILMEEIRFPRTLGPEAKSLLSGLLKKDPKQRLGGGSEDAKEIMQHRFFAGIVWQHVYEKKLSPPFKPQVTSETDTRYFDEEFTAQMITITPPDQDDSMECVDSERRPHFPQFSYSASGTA
Test: Akt activation assay (PDK1-mediated activation, LANCE Ultra crosstide TR-FRET), Akt1
Assay type: biochemical
Settings: read-out: Biological Assay 1 IC50 (nM) Akt1

According to the records, this compound `C[C@H](N)c1ccc(-c2ncc(NC(=O)C[C@H]3CC[C@H](N(C)S(C)(=O)=O)CC3)cc2-c2ccccc2)cc1` displays IC50 of > 30000 nM

# IC50 of `COC(=O)N(C)[C@H]1CC[C@H](CC(=O)Nc2cnc(-c3ccc(C(C)(C)N)cc3)c(-c3ccsc3)c2)CC1` = > 30000 nM

Note to self: IC50 recorded for `CC(=O)N(CC(F)(F)F)[C@H]1CC[C@H](CC(=O)Nc2cc(-c3ccccc3)c(-c3ccc([C@]4(N)C[C@](C)(O)C4)cc3)cn2)CC1` was > 24000 nM

Data point: `CC(=O)N[C@H]1CC[C@H](CC(=O)Nc2cnc(-c3ccc([C@H](N)C(F)F)cc3)c(-c3ccccc3)c2)CC1` ; IC50 = > 30000 nM

The compound listed as `CC(C)(C(=O)N[C@H]1CC[C@H](CC(=O)Nc2cnc(-c3ccc(C4(N)COC4)cc3)c(-c3ccccc3)c2)CC1)C(F)(F)F` has a reported IC50 of > 30000 nM

// sample `CC(=O)N(C)[C@H]1CC[C@H](CC(=O)Nc2cnc(-c3ccc([C@]4(N)C[C@](C)(O)C4)cc3)c(-c3ccccc3)c2)CC1` , its IC50 was 780 nM

Lab book: IC50 of `CC(=O)N(C)[C@H]1CC[C@H](CC(=O)Nc2cc(-c3ccccc3)c(-c3ccc(C4(N)CC(F)(F)C4)cc3)nn2)CC1` noted as > 30000 nM

According to the records, this compound `N[C@]1(c2ccc(-c3nnc(NC(=O)C[C@H]4CC[C@H](N5CCOC5=O)CC4)cc3-c3ccccc3)cc2)C[C@@H](F)C1` displays IC50 of > 17000 nM

Value of measured IC50 for the entry `CC(=O)N(C)[C@H]1CC[C@H](CC(=O)Nc2cnc(-c3ccc(C4(N)CCC4)cc3)c(-c3ccccc3)c2)CC1` : 6200 nM

* * *

Biological target: Akt1 (Homo sapiens, UniProt P31749)
Construct: unspecified tag, removed (detagged) (cleaved yes); purchased SignalChem and Proteros (Akt1); Merck Millipore (PDK1) 14-452 (PDK1); none given for Akt1
Experiment: Akt activation assay (PDK1-mediated activation, LANCE Ultra crosstide TR-FRET), Akt1
Type: biochemical
Conditions: read-out: Biological Assay 1 IC50 (nM) Akt1
Method: Biological Assay 1: Akt Activation Assay Addition of a Europium-labelled antibody specific to the phosphopeptide allows energy transfer from the Europium donor to the Ultra Ulight™ acceptor if close enough in proximity. […] 5 μL enzyme in 1×AB was incubated with 2.5 μL test compound. […] Plates read with the EnVision® Multilabel Plate Reader, excitation at 320 nm and emission at 665 nm and 615 nm. Compound IC50 was determined using a 4-parameter equation.
IC50 by entry:
Hi! Could you send only the number? It should be in nM, unit omitted.

Worked cases, answers included:
[[record]]
molecule = "CC(=O)N(C)[C@H]1CC[C@H](CC(=O)Nc2cnc(-c3ccc([C@]4(N)C[C@H](F)C4)cc3)c(-c3ccccc3)c2)CC1"
reading_unit = "nM"
readout_number = 2000

[[record]]
molecule = "CN([C@H]1CC[C@H](CC(=O)Nc2cnc(-c3ccc(C4(N)CCC4)cc3)c(-c3ccccc3F)c2)CC1)S(C)(=O)=O"
reading_unit = "nM"
readout_number = 9800

[[record]]
molecule = "C[C@]1(O)C[C@@](N)(c2ccc(-c3nnc(NC(=O)C[C@H]4CC[C@H](N5CCOC5=O)CC4)cc3-c3ccccc3)cc2)C1"
reading_unit = "nM"
readout_number = 1300


Now, please, on to the next molecule.
Lookup result for NC1(c2ccc(-c3ncc(NC(=O)C(F)C4CCN(S(=O)(=O)C5CC5)CC4)cc3-c3ccccc3)cc2)CCC1 (stereo not drawn) ; measured IC50: 9800

* * *

As shown below, each of these compounds has a reported IC50 value.
Biological target: p-Akt2 in WM115 cells (Homo sapiens)
Construct: SureFire assays to detect cellular p-Akt1, p-Akt2 and p-Akt3 levels in WM115 cells (Akt2/3) and LNCaP cells (Akt1); endogenous in cells; host or cells: WM115 (ECACC 91061232), insulin-stimulated
Sequence (P31751 whole entry): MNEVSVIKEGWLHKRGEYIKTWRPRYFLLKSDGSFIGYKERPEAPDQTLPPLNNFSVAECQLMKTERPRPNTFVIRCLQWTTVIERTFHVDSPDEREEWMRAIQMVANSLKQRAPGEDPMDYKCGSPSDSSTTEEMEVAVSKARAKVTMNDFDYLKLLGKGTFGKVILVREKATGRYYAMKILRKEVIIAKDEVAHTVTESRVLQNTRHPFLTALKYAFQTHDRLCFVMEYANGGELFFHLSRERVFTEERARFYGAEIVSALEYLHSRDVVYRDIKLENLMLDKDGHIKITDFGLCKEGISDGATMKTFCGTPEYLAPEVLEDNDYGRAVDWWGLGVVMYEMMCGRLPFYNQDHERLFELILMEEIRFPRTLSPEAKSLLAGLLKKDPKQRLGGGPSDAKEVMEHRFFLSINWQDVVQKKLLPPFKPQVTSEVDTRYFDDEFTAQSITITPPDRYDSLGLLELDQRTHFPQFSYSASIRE
Assay: Phospho-Akt cellular SureFire assay, p-Akt2 in WM115 cells
Assay type: cell-based
Settings: insulin stimulated, read-out: Biological Assay 2 IC50 (nM) Akt2 WM115

Example entries begin here.
[[record]]
compound = "N[C@]1(c2ccc(-c3nnc(NC(=O)C[C@H]4CC[C@H](N5CCOC5=O)CC4)cc3-c3ccsc3)cc2)C[C@@H](F)C1 [Example 79]"
result = "> 30000 nM"

[[record]]
compound = "CC(=O)N(C)[C@H]1CC[C@H](CC(=O)Nc2cnc(-c3ccc(C(C)(C)N)nc3)c(-c3ccccc3)c2)CC1 [Example 43]"
result = "> 30000 nM"

[[record]]
compound = "COC(=O)N(C)[C@H]1CC[C@H](CC(=O)Nc2cnc(-c3ccc(C(C)(C)N)c(F)c3)c(-c3ccccc3)c2)CC1 [Example A28]"
result = "> 20000 nM"


Now consider the entry below.
// sample CC(C)(N)c1ccc(-c2cnc(NC(=O)C[C@H]3CC[C@H](N4CCOC4=O)CC3)cc2-c2ccccc2)cc1 [Example 64] , its IC50 was 6600 nM

* * *

Target: p-Akt3 in WM115 cells (Homo sapiens, UniProt Q9Y243)
Construct: SureFire assays to detect cellular p-Akt1, p-Akt2 and p-Akt3 levels in WM115 cells (Akt2/3) and LNCaP cells (Akt1); endogenous in cells; host or cells: WM115 (ECACC 91061232), insulin-stimulated
Sequence (Q9Y243 whole entry): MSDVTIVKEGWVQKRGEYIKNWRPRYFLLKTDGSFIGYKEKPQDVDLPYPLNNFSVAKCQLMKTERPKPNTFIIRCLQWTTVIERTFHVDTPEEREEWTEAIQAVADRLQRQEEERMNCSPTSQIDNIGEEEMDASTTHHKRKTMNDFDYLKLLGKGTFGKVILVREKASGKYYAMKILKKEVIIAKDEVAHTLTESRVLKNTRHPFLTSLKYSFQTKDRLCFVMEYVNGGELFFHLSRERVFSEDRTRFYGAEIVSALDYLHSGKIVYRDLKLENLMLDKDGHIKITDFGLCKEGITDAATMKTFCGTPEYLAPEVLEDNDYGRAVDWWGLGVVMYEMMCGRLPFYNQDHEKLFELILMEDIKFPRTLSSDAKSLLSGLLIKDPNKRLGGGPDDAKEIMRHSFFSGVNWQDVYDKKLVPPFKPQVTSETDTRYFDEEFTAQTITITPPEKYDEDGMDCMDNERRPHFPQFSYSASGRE
Assay: Phospho-Akt cellular SureFire assay, p-Akt3 in WM115 cells
Assay type: cell-based
Conditions: insulin stimulated, read-out: Biological Assay 2 IC50 (nM) Akt3 WM115
quantity-name: IC50 (nM)
Could you give me the number in nM? Just the number is fine.

Study these solved cases before continuing.
[[record]]
compound = "COC(=O)N(C)[C@H]1CC[C@H](CC(=O)Nc2cc(-c3ccccc3)c(-c3ccc(C4(N)CC4)cc3)nn2)CC1 [Example A77]"
reading_unit = "nM"
readout_number = 240

[[record]]
compound = "CC(=O)N(C)[C@H]1CC[C@H](CC(=O)Nc2cc(-c3ccccc3F)c(-c3ccc([C@]4(N)C[C@](C)(O)C4)cc3)cn2)CC1 [Example 94]"
reading_unit = "nM"
readout_number = 13


In plain terms, CCC(=O)N(CC)[C@H]1CC[C@H](CC(=O)Nc2cc(-c3ccccc3)c(-c3ccc([C@]4(N)C[C@](C)(O)C4)cc3)cn2)CC1 [Example 115] has a documented IC50 of 15

* * *

Target: p-Akt2 in WM115 cells (Homo sapiens)
Construct: SureFire assays to detect cellular p-Akt1, p-Akt2 and p-Akt3 levels in WM115 cells (Akt2/3) and LNCaP cells (Akt1); endogenous in cells; host or cells: WM115 (ECACC 91061232), insulin-stimulated
Test: Phospho-Akt cellular SureFire assay, p-Akt2 in WM115 cells
Format: cell-based
Conditions: insulin stimulated, read-out: Biological Assay 2 IC50 (nM) Akt2 WM115
quantity-name: IC50

Examples with answers:
[[record]]
chemical_structure = "CCC(=O)N(C)[C@H]1CC[C@H](CC(=O)Nc2cc(-c3ccsc3)c(-c3ccc(C4(N)CC4)c(F)c3)nn2)CC1"
quantity_name = "IC50"
result = "> 30000 nM"

[[record]]
chemical_structure = "CCC(=O)N(C)[C@H]1CC[C@H](CC(=O)Nc2cc(-c3ccccc3)c(-c3ccc(C4(N)CC4)cc3)cn2)CC1"
quantity_name = "IC50"
result = "9100 nM"

[[record]]
chemical_structure = "COC(=O)N(C)[C@H]1CC[C@H](CC(=O)Nc2cc(-c3ccsc3)c(-c3ccc(C4(N)CCC4)cc3)nn2)CC1"
quantity_name = "IC50"
result = "4300 nM"

[[record]]
chemical_structure = "Cc1nncn1[C@H]1CC[C@H](CC(=O)Nc2cnc(-c3ccc(C4(N)CCC4)cc3)c(-c3ccccc3)c2)CC1"
quantity_name = "IC50"
result = "12000 nM"


// IC50 value for `CC(C)N(C(=O)C1CC1)[C@H]1CC[C@H](CC(=O)Nc2cc(-c3ccccc3)c(-c3ccc([C@]4(N)C[C@](C)(O)C4)cc3)nn2)CC1` : 1400 nM
